Assay: Maillard reaction with glycine, absorbance at 480 nm
Format: physicochemical
Settings: one % glycine, 10% saccharide, pH 7.0, 100°C., 90 min, 1-cm cell
For each record, write down the corresponding Coloration degree (480 nm).
Give bare numbers.

Item: OC[C@H]1O[C@H](O[C@H]2[C@H](O)[C@@H](O)C(O)O[C@@H]2CO)[C@H](O)[C@@H](O)[C@@H]1O (mixture of isomers) [Maltose] | Coloration degree (480 nm): 0.926

# next compound below
Item: OC[C@H]1O[C@H](O[C@H]2O[C@H](CO)[C@@H](O[C@H]3O[C@H](CO)[C@@H](O[C@H]4O[C@H](CO)[C@@H](O[C@H]5O[C@H](CO)[C@@H](O[C@H]6O[C@H](CO)[C@@H](O)[C@H](O)[C@H]6O)[C@H](O)[C@H]5O)[C@H](O)[C@H]4O)[C@H](O)[C@H]3O)[C@H](O)[C@H]2O)[C@H](O)[C@@H](O)[C@@H]1O [P IV, α-maltotetraosyltrehalose] | Coloration degree (480 nm): 0.016

----------
System: α-amylase
Assay: Hydrolysis by α-amylase derived from pig pancreas
Format: in vitro ADME
Conditions: one unit, pH 6.9, 37°C., 18 hours
quantity-name: Saccharide composition of hydrolysate by α-amylase: G3 (maltotriose)
Numbers only.

Solved entries:
Item: `OC[C@H]1O[C@H](O[C@H]2O[C@H](CO)[C@@H](O[C@H]3O[C@H](CO)[C@@H](O[C@H]4O[C@H](CO)[C@@H](O)[C@H](O)[C@H]4O)[C@H](O)[C@H]3O)[C@H](O)[C@H]2O)[C@H](O)[C@@H](O)[C@@H]1O` | Saccharide composition of hydrolysate by α-amylase: G3 (maltotriose): 0.4

Item: `OC[C@H]1O[C@H](O[C@H]2O[C@H](CO)[C@@H](O[C@H]3O[C@H](CO)[C@@H](O[C@H]4O[C@H](CO)[C@@H](O[C@H]5O[C@H](CO)[C@@H](O)[C@H](O)[C@H]5O)[C@H](O)[C@H]4O)[C@H](O)[C@H]3O)[C@H](O)[C@H]2O)[C@H](O)[C@@H](O)[C@@H]1O` | Saccharide composition of hydrolysate by α-amylase: G3 (maltotriose): 0

Item: `OC[C@H]1O[C@H](O[C@H]2O[C@H](CO)[C@@H](O[C@H]3O[C@H](CO)[C@@H](O)[C@H](O)[C@H]3O)[C@H](O)[C@H]2O)[C@H](O)[C@@H](O)[C@@H]1O` | Saccharide composition of hydrolysate by α-amylase: G3 (maltotriose): 2.3

Item: `OC[C@H]1O[C@H](O[C@H]2O[C@H](CO)[C@@H](O[C@H]3O[C@H](CO)[C@@H](O[C@H]4O[C@H](CO)[C@@H](O[C@H]5O[C@H](CO)[C@@H](O[C@H]6O[C@H](CO)[C@@H](O)[C@H](O)[C@H]6O)[C@H](O)[C@H]5O)[C@H](O)[C@H]4O)[C@H](O)[C@H]3O)[C@H](O)[C@H]2O)[C@H](O)[C@@H](O)[C@@H]1O` | Saccharide composition of hydrolysate by α-amylase: G3 (maltotriose): 40.4

# next molecule below
Item: `OC[C@H]1O[C@H](O[C@H]2O[C@H](CO)[C@@H](O[C@H]3O[C@H](CO)[C@@H](O[C@H]4O[C@H](CO)[C@@H](O[C@H]5O[C@H](CO)[C@@H](O[C@H]6O[C@H](CO)[C@@H](O[C@H]7O[C@H](CO)[C@@H](O)[C@H](O)[C@H]7O)[C@H](O)[C@H]6O)[C@H](O)[C@H]5O)[C@H](O)[C@H]4O)[C@H](O)[C@H]3O)[C@H](O)[C@H]2O)[C@H](O)[C@@H](O)[C@@H]1O` | Saccharide composition of hydrolysate by α-amylase: G3 (maltotriose): 35.3

----------
Assay: Maillard reaction with glycine, absorbance at 480 nm
Format: physicochemical
Details: one % glycine, 10% saccharide, pH 7.0, 100°C., 90 min, 1-cm cell
quantity-name: Coloration degree (480 nm)
Numbers only.

Item: OC[C@H]1O[C@H](O[C@H]2[C@H](O)[C@@H](O)[C@@H](O[C@H]3[C@H](O)[C@@H](O)[C@@H](O[C@H]4[C@H](O)[C@@H](O)[C@@H](O[C@H]5[C@H](O)[C@@H](O)C(O)O[C@@H]5CO)O[C@@H]4CO)O[C@@H]3CO)O[C@@H]2CO)[C@H](O)[C@@H](O)[C@@H]1O (stereo partly drawn) [Maltopentaose] | Coloration degree (480 nm): 0.369

Item: OC[C@H]1OC(O)[C@H](O)[C@@H](O)[C@@H]1O (stereo partly drawn) [Glucose] | Coloration degree (480 nm): 1.671

# next compound below
Item: OC[C@H]1O[C@H](O[C@H]2O[C@H](CO)[C@@H](O[C@H]3O[C@H](CO)[C@@H](O[C@H]4O[C@H](CO)[C@@H](O[C@H]5O[C@H](CO)[C@@H](O[C@H]6O[C@H](CO)[C@@H](O[C@H]7O[C@H](CO)[C@@H](O)[C@H](O)[C@H]7O)[C@H](O)[C@H]6O)[C@H](O)[C@H]5O)[C@H](O)[C@H]4O)[C@H](O)[C@H]3O)[C@H](O)[C@H]2O)[C@H](O)[C@@H](O)[C@@H]1O [P V, α-maltopentaosyltrehalose] | Coloration degree (480 nm): 0.015

----------
Tested on: glucoamylase
Assay: Enzymatic hydrolysis by glucoamylase
Assay type: biochemical
Conditions: one unit glucoamylase, pH 4.5, 40°C., 6 hours
Field 'label' (enum: TRUE / FALSE). Set to TRUE when Glucose is strictly under 70%; else FALSE.

Examples from the recorded data:
Regarding `OC[C@H]1O[C@H](O[C@H]2O[C@H](CO)[C@@H](O[C@H]3O[C@H](CO)[C@@H](O)[C@H](O)[C@H]3O)[C@H](O)[C@H]2O)[C@H](O)[C@@H](O)[C@@H]1O` , kindly confirm whether its Glucose is beneath 70%.
TRUE

Regarding `OC[C@H]1O[C@H](O[C@H]2O[C@H](CO)[C@@H](O[C@H]3O[C@H](CO)[C@@H](O[C@H]4O[C@H](CO)[C@@H](O[C@H]5O[C@H](CO)[C@@H](O)[C@H](O)[C@H]5O)[C@H](O)[C@H]4O)[C@H](O)[C@H]3O)[C@H](O)[C@H]2O)[C@H](O)[C@@H](O)[C@@H]1O` , kindly confirm whether its Glucose is beneath 70%.
TRUE

Regarding `OC[C@H]1O[C@H](O[C@H]2O[C@H](CO)[C@@H](O[C@H]3O[C@H](CO)[C@@H](O[C@H]4O[C@H](CO)[C@@H](O[C@H]5O[C@H](CO)[C@@H](O[C@H]6O[C@H](CO)[C@@H](O[C@H]7O[C@H](CO)[C@@H](O)[C@H](O)[C@H]7O)[C@H](O)[C@H]6O)[C@H](O)[C@H]5O)[C@H](O)[C@H]4O)[C@H](O)[C@H]3O)[C@H](O)[C@H]2O)[C@H](O)[C@@H](O)[C@@H]1O` , kindly confirm whether its Glucose is beneath 70%.
FALSE

Consider the record given below.
Regarding `OC[C@H]1O[C@H](O[C@H]2O[C@H](CO)[C@@H](O[C@H]3O[C@H](CO)[C@@H](O[C@H]4O[C@H](CO)[C@@H](O)[C@H](O)[C@H]4O)[C@H](O)[C@H]3O)[C@H](O)[C@H]2O)[C@H](O)[C@@H](O)[C@@H]1O` , kindly confirm whether its Glucose is beneath 70%.
TRUE

----------
For each record, write down the corresponding Saccharide composition of hydrolysate by α-amylase: P I.
Tested on: α-amylase
Assay: Hydrolysis by α-amylase derived from pig pancreas
Format: in vitro ADME
Details: one unit, pH 6.9, 37°C., 18 hours
One number for each entry.

Item: OC[C@H]1O[C@H](O[C@H]2O[C@H](CO)[C@@H](O[C@H]3O[C@H](CO)[C@@H](O[C@H]4O[C@H](CO)[C@@H](O[C@H]5O[C@H](CO)[C@@H](O[C@H]6O[C@H](CO)[C@@H](O)[C@H](O)[C@H]6O)[C@H](O)[C@H]5O)[C@H](O)[C@H]4O)[C@H](O)[C@H]3O)[C@H](O)[C@H]2O)[C@H](O)[C@@H](O)[C@@H]1O [P IV, α-maltotetraosyltrehalose] | Saccharide composition of hydrolysate by α-amylase: P I: 47.2

Count: 4. Required value per item: Saccharide composition of hydrolysate by α-amylase: P I.
1. OC[C@H]1O[C@H](O[C@H]2O[C@H](CO)[C@@H](O[C@H]3O[C@H](CO)[C@@H](O[C@H]4O[C@H](CO)[C@@H](O)[C@H](O)[C@H]4O)[C@H](O)[C@H]3O)[C@H](O)[C@H]2O)[C@H](O)[C@@H](O)[C@@H]1O [P II, α-maltosyltrehalose]
2. OC[C@H]1O[C@H](O[C@H]2O[C@H](CO)[C@@H](O[C@H]3O[C@H](CO)[C@@H](O[C@H]4O[C@H](CO)[C@@H](O[C@H]5O[C@H](CO)[C@@H](O[C@H]6O[C@H](CO)[C@@H](O[C@H]7O[C@H](CO)[C@@H](O)[C@H](O)[C@H]7O)[C@H](O)[C@H]6O)[C@H](O)[C@H]5O)[C@H](O)[C@H]4O)[C@H](O)[C@H]3O)[C@H](O)[C@H]2O)[C@H](O)[C@@H](O)[C@@H]1O [P V, α-maltopentaosyltrehalose]
3. OC[C@H]1O[C@H](O[C@H]2O[C@H](CO)[C@@H](O[C@H]3O[C@H](CO)[C@@H](O)[C@H](O)[C@H]3O)[C@H](O)[C@H]2O)[C@H](O)[C@@H](O)[C@@H]1O [P I, α-glucosyltrehalose]
4. OC[C@H]1O[C@H](O[C@H]2O[C@H](CO)[C@@H](O[C@H]3O[C@H](CO)[C@@H](O[C@H]4O[C@H](CO)[C@@H](O[C@H]5O[C@H](CO)[C@@H](O)[C@H](O)[C@H]5O)[C@H](O)[C@H]4O)[C@H](O)[C@H]3O)[C@H](O)[C@H]2O)[C@H](O)[C@@H](O)[C@@H]1O [P III, α-maltotriosyltrehalose]

1: 0; 2: 10.2; 3: 97.3; 4: 61.0

Source: patent US5681826A
